Biological target: T1, T2 mechanosensitive channel from Thermoplasma volcanium, tag free (Thermoplasma volcanium)
T1 construct: TVN0821, gene amplified from genomic DNA (DSM 4299 [GSS1*]); 297 amino acids per monomer; Cloned into pNIC28-Bsa4 (TEV site) and pET46 (Enterokinase site); In detergent (0.03 % DDM); also called T2 channel; tag free T2-channel; source: E. coli C43(DE3), purified (DDM solubilised, IMAC, tag cleavage, second IMAC, gel filtration); not shown: His-tag, N-terminal, cleaved
T1 chain: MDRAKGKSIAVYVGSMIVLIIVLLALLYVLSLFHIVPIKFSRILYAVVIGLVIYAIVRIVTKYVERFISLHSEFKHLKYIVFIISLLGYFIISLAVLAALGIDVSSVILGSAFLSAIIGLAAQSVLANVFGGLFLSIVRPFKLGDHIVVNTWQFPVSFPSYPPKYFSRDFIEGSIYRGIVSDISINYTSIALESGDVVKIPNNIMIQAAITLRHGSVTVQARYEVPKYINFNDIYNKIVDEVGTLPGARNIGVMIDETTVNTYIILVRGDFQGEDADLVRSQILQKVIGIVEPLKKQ
Test: SPR; BIAcore 3000, 25 °C, 20 mM sodium phosphate pH 7.4, 150 mM NaCl, 0.03 % DDM; T2 channel amine-coupled on CM5 (1500 - 2000 RU); nanobodies 0.35 - 86.1 nM injected in triplicates; global fit to a simple bimolecular model, KD = kd/ka
Conditions: both partners purified
pKd: −log10 of the molar value.
property: pKd

binder	property	reported
nanobody 15 (VHH, pHEN6 vector; also called Nb 15; CA-number 3397; source: E. coli WK6 periplasm, purified (IMAC, gel filtration); not shown: His-tag, C-terminal, kept) VHH: QVQLQESGGGLVQPGGSLRLSCAASGSISTINHMGWYRQPPGKQRELVAVITRSGSTNYADSVKGRFTISRGNVKNTVYLQMNSVKAEDTAVYYCNAYTEFDRPYNHWGQGTQVTVSS	pKd	10.24
nanobody 16 (VHH, pHEN6 vector; also called Nb 16; CA-number 3398; source: E. coli WK6 periplasm, purified (IMAC, gel filtration); not shown: His-tag, C-terminal, kept) VHH: QVQLQESGGGLVQPGGSLTLSCAASGSPFSFGAMGWYRQAPGKQRELVAIITSGGSTNYADSVKGRFTVSRDNAKNTVYLQMNSLKPEDTAVYYCYHQTAPVADVTWGQGTQVTVSS	pKd	8.13
nanobody 12 (VHH, pHEN6 vector; also called Nb 12; CA-number 3394; source: E. coli WK6 periplasm, purified (IMAC, gel filtration); not shown: His-tag, C-terminal, kept) VHH: QVQLQESGGGLVQPGGSLRLSCVASGSIFSINAMGWYRQAPGKQRDLVAVITSRGSTNYADSVKGRFTISRDNAKNTTYLQMNSLKPEDTAVYYCNADLAAYYSGTYYDTLLYWGQGTQVTVSS	pKd	8.42
nanobody 14 (VHH, pHEN6 vector; also called Nb 14; CA-number 3396; source: E. coli WK6 periplasm, purified (IMAC, gel filtration); not shown: His-tag, C-terminal, kept) VHH: QVQLQESGGGLVQPGGSLRLSCAASGSIFSINSMDWYRQAPGKQRELVATITSGGSTNYADSVKGRFTISRDNAKNTVYLQMNSLKPEDTAVYLCHAVVATRGGYWGQGTQVTVSS	pKd	8.59
nanobody 13 (VHH, pHEN6 vector; also called Nb 13; CA-number 3395; source: E. coli WK6 periplasm, purified (IMAC, gel filtration); not shown: His-tag, C-terminal, kept) VHH: QVQLQESGGGLVQPGGSLRLSCAASGSISRINHMGWYRQPPGKQRELVAVITSGGSTNYADSVKGRFTISRGNYQNTVYLQMNSLKAEDTAVYYCNAYTEFDRPYNHWGQGTQVTVSS	pKd	9.21
nanobody 19 (VHH, pHEN6 vector; also called Nb 19; CA-number 3402; source: E. coli WK6 periplasm, purified (IMAC, gel filtration); not shown: His-tag, C-terminal, kept) VHH: QVQLQESGGGLVQPGGSLRLSCAASGSISRLNHMGWYRQPPGKQRELVAVITSGGSTDYADSVKGRFTISSGNAKNTVYLQMNSLKTEDTAVYYCNAYSEFIRPYTLWGQGTQVTVSS	pKd	8.89
nanobody 11 (VHH, pHEN6 vector; also called Nb 11; CA-number 3393; source: E. coli WK6 periplasm, purified (IMAC, gel filtration); not shown: His-tag, C-terminal, kept) VHH: QVQLQESGGGLVQAGGSLRLSCAASGGPFTFGAMGWYRQAPGKQRELVAIITKKGSTNYADSVKGRFTVSRDNAKNTVYLQMNSLKPEDTAVYYCYHQTAPVADVTWGQGTQVTVSS	pKd	7.82
nanobody 18 (VHH, pHEN6 vector; also called Nb 18; CA-number 3401; source: E. coli WK6 periplasm, purified (IMAC, gel filtration); not shown: His-tag, C-terminal, kept) VHH: QVQLQESGGGLVQPGGSLRLSCAASGSIFSINAMGWYRQAPGKQRELVAFITKVGNTNYADSVKDRFAISRDNAKNTVYLQMNSLKPEDTAVYYCYADIENSSNYKQDFYWGQGTQVTVSS	pKd	8.96
nanobody 22 (VHH, pHEN6 vector; also called Nb 22; CA-number 3406; source: E. coli WK6 periplasm, purified (IMAC, gel filtration); not shown: His-tag, C-terminal, kept) VHH: QVQLQESGGGLVQAGGSLRLSCAASGGTFKSGGMAWFRQAPGKAREFAAGISWSGGSTDYEDSVKGRFTISRDNAKNTMYLQMNSLKPEDTAVYYCAAARRFRAGVVTRADDVDYWGKGTQVTVSS	pKd	7.59
nanobody 4 (VHH, pHEN6 vector; also called Nb 4; CA-number 3383; source: E. coli WK6 periplasm, purified (IMAC, gel filtration); not shown: His-tag, C-terminal, kept) VHH: QVQLQESGGGLVQPGGSLRLSCAASGSIFSMNSMDWYRQAPGKQRELVATITSGGSTNYADSVKGRFTISRDNAWNTVTLQMNSLKPEDTAVYYCHAVLSTRGGYWGQGTQVTVSS	pKd	8.47
